- Assay Method Text: AUC (0 to infinity) in Sprague-Dawley rat at 2 mg/kg, iv measured for 36 hrs by MRM analysis
- Format: ADME, organism-based
- Experimental Setup: in vivo
Property Name: AUC(0-inf)

>>> df
                         chemical_structure        result
0  Cc1cnc(Nc2ccc(S(N)(=O)=O)cc2)nc1Nc1nccs1  33.7 ng·h/mL

---

- Assay Method Text: Inhibition of CDK6/cyclin D (unknown origin) using […] incubated for 40 mins in presence of ATP by Kinase-Glo assay
- Set-up: species or system Homo sapiens
Property Name: IC50 (µM)

>>> print(df.to_string())
                         chemical_structure  property_name  result_number
0  Cc1cnc(Nc2ccc(S(N)(=O)=O)cc2)nc1Nc1nccs1           IC50           3.25
